measurement target: bovine beta-2 adrenoceptor (Bos taurus, UniProt Q28044)
Sequence (Q28044 whole entry): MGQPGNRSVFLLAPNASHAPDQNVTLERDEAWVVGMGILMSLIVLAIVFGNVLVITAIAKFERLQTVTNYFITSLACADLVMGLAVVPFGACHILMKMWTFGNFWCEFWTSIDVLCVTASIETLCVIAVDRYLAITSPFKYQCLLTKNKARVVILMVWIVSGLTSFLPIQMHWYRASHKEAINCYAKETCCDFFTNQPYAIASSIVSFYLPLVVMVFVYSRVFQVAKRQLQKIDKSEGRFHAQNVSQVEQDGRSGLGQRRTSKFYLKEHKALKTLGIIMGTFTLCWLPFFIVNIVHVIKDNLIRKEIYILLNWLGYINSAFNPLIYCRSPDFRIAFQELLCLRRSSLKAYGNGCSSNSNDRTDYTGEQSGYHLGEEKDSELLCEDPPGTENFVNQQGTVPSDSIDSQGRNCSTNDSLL
assay info: cAMP assay in CHO cells transfected with the bovine beta-2 adrenoceptor
details: cAMP (DiscoveRx Hit Hunter cAMP II) in CHO cells transfected with bovine beta-2 adrenoceptor, 30 minutes with compound, 0.5 mM IBMX
pEC50: −log10 of the molar value.
pEC50 vs 8: at or above is yes, below is no.

INSERT INTO results (compound, label_class) VALUES
  ('CCS(=O)(=O)Nc1ccccc1CCC(C)NC1CCn2c(=O)[nH]c3cccc(c32)C1O (single isomer, unassigned)', 'yes');

Tell me whether pEC50 is at least 8 here: CC(CCc1ccc2c(c1)CCO2)N[C@@H]1CCn2c(=O)[nH]c3cccc(c32)[C@H]1O (single isomer, unassigned) [Example 3c]
no

Next record, please: CC(CCc1cccc(F)c1O)N[C@@H]1CCn2c(=O)[nH]c3cccc(c32)[C@H]1O (single isomer, unassigned) [Example 28a]
yes

Next record, please: CC(/C=C/c1ccccc1NS(C)(=O)=O)N[C@@H]1CCn2c(=O)[nH]c3cccc(c32)[C@H]1O (mixture of isomers)
no
